# System: human erythrocytes
# measurementProtocol: Hemolysis assay
# Type: cell-based
Square brackets hold non-standard residues; d marks the D form. Peptide text beside a SMILES is read from it. Nspe = C[C@H](NCC(=O)O)c1ccccc1; Nlys = NCCCCNCC(=O)O
readoutKind: HD50

>>> observedvalue("C[C@@H](c1ccccc1)N(CC(N)=O)C(=O)CN(C(=O)CN(CCCCN)C(=O)CN(C(=O)CN(C(=O)CNCCCCN)[C@@H](C)c1ccccc1)[C@@H](C)c1ccccc1)[C@@H](C)c1ccccc1 [16 mer, H-(Nlys-Nspe-Nspe)2-NH2] (H-[Nlys][Nspe][Nspe][Nlys][Nspe][Nspe]-NH2)")
">220/>220 μM"
>>> observedvalue("C[C@@H](c1ccccc1)N(CC(N)=O)C(=O)CN(CCCCN)C(=O)CN(CCCCN)C(=O)CN(C(=O)CN(C(=O)CN(CCCCN)C(=O)CN(C(=O)CN(CCCCN)C(=O)CN(CCCCN)C(=O)CN(C(=O)CN(C(=O)CNCCCCN)[C@@H](C)c1ccccc1)[C@@H](C)c1ccccc1)[C@@H](C)c1ccccc1)[C@@H](C)c1ccccc1)[C@@H](C)c1ccccc1 [1-Nlys5,11, H-(Nlys-Nspe-Nspe-Nlys-Nlys-Nspe)2-NH2] (H-[Nlys][Nspe][Nspe][Nlys][Nlys][Nspe][Nlys][Nspe][Nspe][Nlys][Nlys][Nspe]-NH2)")
">100/>100 μM"

* * *

# System: human erythrocytes
# measurementProtocol: Hemolysis assay
# Assay type: cell-based
Square brackets hold non-standard residues; d marks the D form. Peptide text beside a SMILES is read from it. Nspe = C[C@H](NCC(=O)O)c1ccccc1; Nlys = NCCCCNCC(=O)O
readoutKind: HD50

>>> observedvalue("C[C@@H](c1ccccc1)N(CC(N)=O)C(=O)CN(C(=O)CN(CCCCN)C(=O)CN(C(=O)CN(C(=O)CN(CCCCN)C(=O)CN(C(=O)CN(C(=O)CN(CCCCN)C(=O)[C@@H]1CCCN1C(=O)CN(C(=O)CNCCCCN)[C@@H](C)c1ccccc1)[C@@H](C)c1ccccc1)[C@@H](C)c1ccccc1)[C@@H](C)c1ccccc1)[C@@H](C)c1ccccc1)[C@@H](C)c1ccccc1 [1-Pro3, H-Nlys-Nspe-L-Pro-(Nlys-Nspe-Nspe)3-NH2] (H-[Nlys][Nspe]P[Nlys][Nspe][Nspe][Nlys][Nspe][Nspe][Nlys][Nspe][Nspe]-NH2)")
"> 200 µM"

* * *

Attribute: HD10
# System: human erythrocytes
# measurementProtocol: Hemolysis assay
# Format: cell-based
Numbered stars: 1 amine (or outer) side, 2 acyl side, 3 side chain; on linkers, the order of the positions; unused ones are H or OH. Square brackets hold non-standard residues; d marks the D form. Peptide text beside a SMILES is read from it. X1 = CC(C)[C@H](C)N(CC(=O)[*:2])[*:1]; Nspe = C[C@H](NCC(=O)O)c1ccccc1; NDecylGly = CCCCCCCCCCNCC(=O)O; Nlys = NCCCCNCC(=O)O
readoutKind: HD10 (µM)

>>> observedvalue("C[C@H](NCC(=O)N(CC(=O)N(CCCCN)CC(=O)N(CC(=O)N(CCCCN)CC(=O)N(CC(=O)N(CCCCN)CC(=O)N(CC(=O)N(CC(=O)N(CC(=O)N(CC(=O)N(CCCCN)CC(N)=O)[C@@H](C)c1ccccc1)[C@@H](C)c1ccccc1)[C@@H](C)c1ccccc1)[C@@H](C)c1ccccc1)[C@@H](C)c1ccccc1)[C@@H](C)c1ccccc1)[C@@H](C)c1ccccc1)c1ccccc1 [1scr, H-(Nspe)2-(Nlys-Nspe)3-(Nspe)3-Nlys-NH2] (H-[Nspe][Nspe][Nlys][Nspe][Nlys][Nspe][Nlys][Nspe][Nspe][Nspe][Nspe][Nlys]-NH2)")
64
>>> observedvalue("CCCCCCCCCCNCC(=O)N(CCCCN)CC(=O)N(CC(=O)N(CC(=O)N(CCCCN)CC(=O)N(CC(=O)N(CC(=O)N(CCCCN)CC(=O)N(CC(=O)N(CC(N)=O)[C@@H](C)c1ccccc1)[C@@H](C)c1ccccc1)[C@@H](C)c1ccccc1)[C@@H](C)c1ccccc1)[C@@H](C)c1ccccc1)[C@@H](C)c1ccccc1 [C10-19 mer] (H-[NDecylGly][Nlys][Nspe][Nspe][Nlys][Nspe][Nspe][Nlys][Nspe][Nspe]-NH2)")
12
>>> observedvalue("C[C@H](NCC(=O)N(CC(=O)N(CCCCN)CC(=O)N(CC(=O)N(CC(=O)N(CCCCN)CC(=O)N(CC(=O)N(CC(=O)N(CCCCN)CC(=O)N(CC(=O)N(CC(=O)N(CCCCN)CC(N)=O)[C@@H](C)c1ccccc1)[C@@H](C)c1ccccc1)[C@@H](C)c1ccccc1)[C@@H](C)c1ccccc1)[C@@H](C)c1ccccc1)[C@@H](C)c1ccccc1)[C@@H](C)c1ccccc1)c1ccccc1 [1C, H-(Nspe-Nspe-Nlys)4-NH2] (H-[Nspe][Nspe][Nlys][Nspe][Nspe][Nlys][Nspe][Nspe][Nlys][Nspe][Nspe][Nlys]-NH2)")
25
>>> observedvalue("CC(C)[C@H](C)N(CC(=O)N(CC(=O)N(CCCCN)CC(=O)N(CC(=O)N(CC(=O)N(CCCCN)CC(=O)N(CC(=O)N(CC(=O)N(CCCCN)CC(=O)N(CC(=O)N(CC(N)=O)[C@@H](C)c1ccccc1)[C@@H](C)C(C)C)[C@@H](C)c1ccccc1)[C@@H](C)C(C)C)[C@@H](C)c1ccccc1)[C@@H](C)C(C)C)[C@@H](C)c1ccccc1)C(=O)CNCCCCN [1-Nsdp2,5,8,11, H-(Nlys-Nsdp-Nspe)4-NH2] (H-[Nlys][X1][Nspe][Nlys][X1][Nspe][Nlys][X1][Nspe][Nlys][X1][Nspe]-NH2)")
111
